Each entry below carries its recorded EC50.
test system: RSV Long strain; assay: Viral cytopathic effect (CPE) assay, anti-RSV activity; assay type: cell-based, Respiratory Syncytial Virus; details: human respiratory syncytial virus, 144 h, RSV Long strain (ATCC); cell viability after 6 days, Cell Counting kit-8

# Molecule, Study system, EC50
measured = [
    ("Cc1ccc2nc(N3CCS(=O)(=O)c4ccccc4C3)cc(NC[C@@H](C)N)c2c1", "RSV Long strain", "0.018 µM"),
    ("Cc1ccc2nc(N3CCS(=O)(=O)c4ccccc4C3)cc(N3C[C@H](O)C(C)(C)C3)c2c1", "RSV Long strain", "5.05 µM"),
    ("NCC(F)(F)CNc1cc(N2CCS(=O)(=O)c3ccccc3C2)nc2ccc(Cl)cc12", "RSV Long strain", "0.507 µM"),
    ("Cc1ccc2nc(N3CCS(=O)(=O)c4ccccc4C3)cc(NCC(C)C(N)=O)c2c1 (centres unmarked)", "RSV Long strain", "2.15 µM"),
    ("Cc1ccc2nc(N3CCS(=O)(=O)c4ccccc4C3)cc(NCCNCCO)c2c1", "RSV Long strain", "0.007 µM"),
]
